All figures here come from patent US11912710B2.

- target_desc: PLK1 (Homo sapiens)
- Construct: endogenous in cells; host or cells: HeLa LgBit (Plk1-HiBit KI): HeLa cells stably expressing LgBit, with HiBit knocked into the endogenous Plk1 locus by CRISPR/Cas9
- Sequence (P53350 whole entry): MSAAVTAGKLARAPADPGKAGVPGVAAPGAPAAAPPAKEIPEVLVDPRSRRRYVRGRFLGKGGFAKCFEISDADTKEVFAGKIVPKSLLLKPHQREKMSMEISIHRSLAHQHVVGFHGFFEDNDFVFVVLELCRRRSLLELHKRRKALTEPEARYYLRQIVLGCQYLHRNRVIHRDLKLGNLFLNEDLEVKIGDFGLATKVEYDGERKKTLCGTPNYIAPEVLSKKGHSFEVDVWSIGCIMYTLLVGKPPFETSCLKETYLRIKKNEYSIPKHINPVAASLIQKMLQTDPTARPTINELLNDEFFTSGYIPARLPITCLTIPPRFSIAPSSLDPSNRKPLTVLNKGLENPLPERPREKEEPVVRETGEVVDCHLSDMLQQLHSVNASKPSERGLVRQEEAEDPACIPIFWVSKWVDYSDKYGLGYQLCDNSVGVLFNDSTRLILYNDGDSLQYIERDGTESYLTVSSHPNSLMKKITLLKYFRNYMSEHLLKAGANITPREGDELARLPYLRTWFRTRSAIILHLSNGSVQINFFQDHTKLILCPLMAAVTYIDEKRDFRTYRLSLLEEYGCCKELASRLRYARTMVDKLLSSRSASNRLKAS
- experiment_description: Luciferase assay for PLK1 in HeLa LgBit (Plk1-HiBit KI) cell line
- Type: cell-based
- measurement_parameters: 300 nM compound, luminescence after 9 hours, read-out: Activity: ratio of the luminescense value of compound treatment group to DMSO treatment group
remaining activity at 0.3 µM values by entry

molecule: COc1cc(C(=O)NC2CCN(C(=O)CC3CCN(c4ccc(C5CCC(=O)NC5=O)cc4F)CC3)CC2)ccc1Nc1ncc2c(n1)N(C1CCCC1)CC(F)(F)C(=O)N2C (centres unmarked) [Compound 10]
property_measured: remaining activity at 0.3 µM
obs_value: < 30%
//
molecule: COc1cc(C(=O)NC2CCN(C(=O)CCN3CCN(c4ccc(N5CCC(=O)NC5=O)cc4)CC3)CC2)ccc1Nc1ncc2c(n1)N(C1CCCC1)CC(F)(F)C(=O)N2C [Compound 32]
property_measured: remaining activity at 0.3 µM
obs_value: < 60%
//
molecule: COc1cc(C(=O)NC2CC3(CCN(CC4CCN(c5cccc(N6CCC(=O)NC6=O)c5)CC4)CC3)C2)ccc1Nc1ncc2c(n1)N(C1CCCC1)CC(F)(F)C(=O)N2C [Compound 34]
property_measured: remaining activity at 0.3 µM
obs_value: < 60%
//
molecule: COc1cc(C(=O)NN2CCC([C@H](C)CN3CCN(c4ccc(C5CCC(=O)NC5=O)cc4F)CC3)CC2)ccc1Nc1ncc2c(n1)N(C1CCCC1)CC(F)(F)C(=O)N2C (some centres unmarked) [Compound 20]
property_measured: remaining activity at 0.3 µM
obs_value: < 30%
//
molecule: COc1cc(C(=O)NC2CCN(C(=O)CCN3CCN(c4ccnc(C5CCC(=O)NC5=O)c4)CC3)CC2)ccc1Nc1ncc2c(n1)N(C1CCCC1)CC(F)(F)C(=O)N2C (centres unmarked) [Compound 37]
property_measured: remaining activity at 0.3 µM
obs_value: < 60%

[in] Given COc1cc(C(=O)NC2CC3(CCN(CC4CCN(c5ccc(C6CCC(=O)NC6=O)cc5C)CC4)CC3)C2)ccc1Nc1ncc2c(n1)N(C1CCCC1)CC(F)(F)C(=O)N2C (centres unmarked) [Compound 25] , state its recorded remaining activity at 0.3 µM.
[out] < 30%

[in] Given COc1cc(C(=O)NC2CC3(CCN(CC4CCN(c5ccc(C6CCC(=O)NC6=O)nc5)CC4)CC3)C2)ccc1Nc1ncc2c(n1)N(C1CCCC1)CC(F)(F)C(=O)N2C (centres unmarked) [Compound 39] , state its recorded remaining activity at 0.3 µM.
[out] < 60%

[in] Given COc1cc(C(=O)NC2CC3(CCN(CC4CCN(c5ccc(C6CCC(=O)NC6=O)cc5)CC4)CC3)C2)ccc1Nc1ncc2c(n1)N(C1CCCC1)CC(F)(F)C(=O)N2C (centres unmarked) [Compound 16] , state its recorded remaining activity at 0.3 µM.
[out] < 30%

[in] Given COc1cc(C(=O)NC2CC3(CCN(CC4CCN(c5cccc(C6CCC(=O)NC6=O)c5)CC4)CC3)C2)ccc1Nc1ncc2c(n1)N(C1CCCC1)CC(F)(F)C(=O)N2C (centres unmarked) [Compound 41] , state its recorded remaining activity at 0.3 µM.
[out] < 60%

[in] Given COc1cc(C(=O)NC2CC3(CCN(CC4CCN(c5ccc(C6CCC(=O)NC6=O)cc5F)CC4C)CC3)C2)ccc1Nc1ncc2c(n1)N(C1CCCC1)CC(F)(F)C(=O)N2C (centres unmarked) [Compound 27] , state its recorded remaining activity at 0.3 µM.
[out] < 60%

[in] Given COc1cc(C(=O)NCC2CC23CCN(CC2CCN(c4ccc(C5CCC(=O)NC5=O)cc4F)CC2)CC3)ccc1Nc1ncc2c(n1)N(C1CCCC1)CC(F)(F)C(=O)N2C (centres unmarked) [Compound 24] , state its recorded remaining activity at 0.3 µM.
[out] < 30%
